- assayInfo: Pharmacokinetics in women (Example 23)
- Type: in vivo
- appliedConditions: female, human, in vivo, composition with 400 mg/ml MPA, N 6, read-out: Cmax, Mean
assayMetric: Cmax (ng/mL)
Numeric only. Scale: ng/mL

Problem: Which Cmax reading was recorded for the molecule CC(=O)O[C@]1(C(C)=O)CC[C@H]2[C@@H]3C[C@H](C)C4=CC(=O)CC[C@]4(C)[C@H]3CC[C@@]21C [medroxyprogesterone acetate] ?
Solution: 0.53

----------
- assayInfo: Pharmacokinetics in women (Example 23)
- Format: in vivo
- appliedConditions: female, human, in vivo, composition with 400 mg/ml MPA, day 28, N 6, read-out: C28, Min-Max
assayMetric: concentration at 28 day

Problem: Which concentration at 28 day reading was recorded for the compound CC(=O)O[C@]1(C(C)=O)CC[C@H]2[C@@H]3C[C@H](C)C4=CC(=O)CC[C@]4(C)[C@H]3CC[C@@]21C [medroxyprogesterone acetate] ?
Solution: 0.03 to 0.5 ng/mL

----------
- assayInfo: Pharmacokinetics in women (Example 23)
- Type: in vivo
- appliedConditions: female, human, in vivo, composition with 400 mg/ml MPA, N 6, read-out: Tmax, Median (converted)
assayMetric: Tmax (h)
Numeric only. Scale: h

Problem: Which Tmax reading was recorded for the compound CC(=O)O[C@]1(C(C)=O)CC[C@H]2[C@@H]3C[C@H](C)C4=CC(=O)CC[C@]4(C)[C@H]3CC[C@@]21C [medroxyprogesterone acetate] ?
Solution: 228

----------
- assayInfo: Pharmacokinetics in women (Example 23)
- Format: in vivo
- appliedConditions: female, human, in vivo, composition with 400 mg/ml MPA, day 91, N 6, read-out: C91, Min-Max
assayMetric: concentration at 91 day

Problem: Which concentration at 91 day reading was recorded for the compound CC(=O)O[C@]1(C(C)=O)CC[C@H]2[C@@H]3C[C@H](C)C4=CC(=O)CC[C@]4(C)[C@H]3CC[C@@]21C [medroxyprogesterone acetate] ?
Solution: 0.26 to 0.63 ng/mL

----------
- assayInfo: Pharmacokinetics in women (Example 23)
- Type: in vivo
- appliedConditions: female, human, in vivo, composition with 400 mg/ml MPA, day 182, N 6, read-out: C182, Min-Max
assayMetric: concentration at 182 day

Problem: Which concentration at 182 day reading was recorded for the molecule CC(=O)O[C@]1(C(C)=O)CC[C@H]2[C@@H]3C[C@H](C)C4=CC(=O)CC[C@]4(C)[C@H]3CC[C@@]21C [medroxyprogesterone acetate] ?
Solution: 0.14 to 0.34 ng/mL

----------
- assayInfo: Pharmacokinetics in women (Example 23)
- Type: in vivo
- appliedConditions: female, human, in vivo, composition with 400 mg/ml MPA, day 28, N 6, read-out: C28, Mean
assayMetric: concentration at 28 day (ng/mL)
Numeric only. Scale: ng/mL

Problem: Which concentration at 28 day reading was recorded for the compound CC(=O)O[C@]1(C(C)=O)CC[C@H]2[C@@H]3C[C@H](C)C4=CC(=O)CC[C@]4(C)[C@H]3CC[C@@]21C [medroxyprogesterone acetate] ?
Solution: 0.36

----------
- assayInfo: Pharmacokinetics in women (Example 23)
- Type: in vivo
- appliedConditions: female, human, in vivo, composition with 400 mg/ml MPA, day 28, N 6, read-out: C28, Median
assayMetric: concentration at 28 day (ng/mL)
Numeric only. Scale: ng/mL

Problem: Which concentration at 28 day reading was recorded for the molecule CC(=O)O[C@]1(C(C)=O)CC[C@H]2[C@@H]3C[C@H](C)C4=CC(=O)CC[C@]4(C)[C@H]3CC[C@@]21C [medroxyprogesterone acetate] ?
Solution: 0.36

----------
- assayInfo: Pharmacokinetics in women (Example 23)
- Format: in vivo
- appliedConditions: female, human, in vivo, composition with 400 mg/ml MPA, N 6, read-out: Half-life, Median (converted)
- Description: 12 women were sequentially administered medroxyprogesterone acetate. PK was evaluated for at least 182 days. The composition tested was an embodiment of the disclosure and included 400 mg/ml MPA,
assayMetric: half-life

Problem: Which half-life reading was recorded for the molecule CC(=O)O[C@]1(C(C)=O)CC[C@H]2[C@@H]3C[C@H](C)C4=CC(=O)CC[C@]4(C)[C@H]3CC[C@@]21C [medroxyprogesterone acetate] ?
Solution: 104 days

----------
- assayInfo: Pharmacokinetics in women (Example 23)
- Format: in vivo
- appliedConditions: female, human, in vivo, composition with 400 mg/ml MPA, day 91, N 6, read-out: C91, Median
assayMetric: concentration at 91 day (ng/mL)
Numeric only. Scale: ng/mL

Problem: Which concentration at 91 day reading was recorded for the molecule CC(=O)O[C@]1(C(C)=O)CC[C@H]2[C@@H]3C[C@H](C)C4=CC(=O)CC[C@]4(C)[C@H]3CC[C@@]21C [medroxyprogesterone acetate] ?
Solution: 0.41

----------
- assayInfo: Pharmacokinetics in women (Example 23)
- Type: in vivo
- appliedConditions: female, human, in vivo, composition with 400 mg/ml MPA, N 6, read-out: Half-life, Min-Max
assayMetric: half-life

Problem: Which half-life reading was recorded for the molecule CC(=O)O[C@]1(C(C)=O)CC[C@H]2[C@@H]3C[C@H](C)C4=CC(=O)CC[C@]4(C)[C@H]3CC[C@@]21C [medroxyprogesterone acetate] ?
Solution: 22.9 to 166 days

----------
- assayInfo: Pharmacokinetics in women (Example 23)
- Assay type: in vivo
- appliedConditions: female, human, in vivo, composition with 400 mg/ml MPA, day 182, N 6, read-out: C182, Mean
assayMetric: concentration at 182 day (ng/mL)
Numeric only. Scale: ng/mL

Problem: Which concentration at 182 day reading was recorded for the compound CC(=O)O[C@]1(C(C)=O)CC[C@H]2[C@@H]3C[C@H](C)C4=CC(=O)CC[C@]4(C)[C@H]3CC[C@@]21C [medroxyprogesterone acetate] ?
Solution: 0.22

----------
- assayInfo: Pharmacokinetics in women (Example 23)
- Format: in vivo
- appliedConditions: female, human, in vivo, composition with 400 mg/ml MPA, N 6, read-out: Half-life, Mean (converted)
assayMetric: half-life
Entry format: amount then unit.

Problem: Which half-life reading was recorded for the molecule CC(=O)O[C@]1(C(C)=O)CC[C@H]2[C@@H]3C[C@H](C)C4=CC(=O)CC[C@]4(C)[C@H]3CC[C@@]21C [medroxyprogesterone acetate] ?
Solution: 99.4 days
